Target: Focal adhesion kinase 1 (Homo sapiens)
Sequence (Q05397 whole entry): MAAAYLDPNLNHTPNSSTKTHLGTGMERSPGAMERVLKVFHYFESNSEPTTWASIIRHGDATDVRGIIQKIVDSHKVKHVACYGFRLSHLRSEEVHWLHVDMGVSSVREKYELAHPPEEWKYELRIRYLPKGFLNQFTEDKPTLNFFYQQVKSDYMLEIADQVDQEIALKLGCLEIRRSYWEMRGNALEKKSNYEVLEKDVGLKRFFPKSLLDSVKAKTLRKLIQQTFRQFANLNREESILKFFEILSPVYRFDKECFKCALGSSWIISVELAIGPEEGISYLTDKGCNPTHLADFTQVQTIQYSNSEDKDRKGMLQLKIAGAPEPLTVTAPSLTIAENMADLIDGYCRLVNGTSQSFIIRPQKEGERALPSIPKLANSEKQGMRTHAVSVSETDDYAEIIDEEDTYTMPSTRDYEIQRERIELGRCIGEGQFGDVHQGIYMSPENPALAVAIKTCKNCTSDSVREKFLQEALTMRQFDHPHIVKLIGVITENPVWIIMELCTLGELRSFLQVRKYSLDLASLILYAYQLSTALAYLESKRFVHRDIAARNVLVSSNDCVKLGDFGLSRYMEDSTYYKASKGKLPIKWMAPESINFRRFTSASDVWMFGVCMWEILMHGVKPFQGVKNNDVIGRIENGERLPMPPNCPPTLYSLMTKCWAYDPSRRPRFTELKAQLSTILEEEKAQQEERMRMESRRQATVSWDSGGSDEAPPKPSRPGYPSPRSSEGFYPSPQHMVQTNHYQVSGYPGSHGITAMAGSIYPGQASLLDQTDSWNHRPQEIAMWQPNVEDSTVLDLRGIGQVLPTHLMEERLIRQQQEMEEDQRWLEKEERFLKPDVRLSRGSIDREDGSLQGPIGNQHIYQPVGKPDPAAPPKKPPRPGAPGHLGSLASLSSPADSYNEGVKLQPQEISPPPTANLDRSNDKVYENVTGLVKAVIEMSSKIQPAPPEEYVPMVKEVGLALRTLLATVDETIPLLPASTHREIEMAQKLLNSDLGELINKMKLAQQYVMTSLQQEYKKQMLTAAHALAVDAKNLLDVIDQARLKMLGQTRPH
Assay: Inhibition of pre-activated recombinant full length FAK (unknown origin) using ULight labeled poly(Glu/Tyr) as substrate after 1.6 hrs by TR-FRET assay
quantity_name: pIC50
In simple prose, pIC50 is minus the logarithm base ten of a concentration in moles per litre.

Here are 4 compounds together with their reported answers.
CS(=O)(=O)Nc1ccccc1Nc1ncnc(Nc2ccc(CN)cc2)n1	5.64
CNc1nc(Nc2cccc(NS(C)(=O)=O)c2)nc(Nc2cc(OC)c(OC)c(OC)c2)n1	4.38
CC(C)NC(=O)c1ccccc1Nc1ncnc(Nc2ccc(CN)cc2)n1	6.00
COc1cc(Nc2nc(C)nc(Nc3ccccc3NC(=O)N(C)C)n2)cc(OC)c1OC	4.27

Next up:
Requested field: pIC50. Item: COc1cc(Nc2ncnc(Nc3cccc(NS(C)(=O)=O)c3)n2)cc(OC)c1OC
5.04

* * *

Target: Focal adhesion kinase 1 (Homo sapiens)
Assay: Inhibition of pre-activated recombinant full length FAK (unknown origin) using ULight labeled poly(Glu/Tyr) as substrate after 1.6 hrs by TR-FRET assay
quantity_name: pIC50
In simple prose, pIC50 is minus the logarithm base ten of a concentration in moles per litre.

Here are 3 molecules together with their reported answers.
COc1cc(Nc2nc(Cl)nc(Nc3ccccc3NS(C)(=O)=O)n2)cc(OC)c1OC	4.38
COC(=O)c1ccccc1Nc1ncnc(Nc2cc(OC)c(OC)c(OC)c2)n1	4.75
COc1cc(Nc2nc(Cl)nc(Nc3cccc(NS(C)(=O)=O)c3)n2)cc(OC)c1OC	4.24

Requested field: pIC50. Item: COc1cc(Nc2ncnc(Nc3ccccc3C(=O)NC3CC3)n2)cc(OC)c1OC
5.21

Requested field: pIC50. Item: COc1cc(Nc2nc(C)nc(Nc3ccccc3NS(C)(=O)=O)n2)cc(OC)c1OC
5.10

Requested field: pIC50. Item: COc1cc(Nc2ncnc(Nc3ccccc3C(=O)NC(C)C)n2)cc(OC)c1OC
5.66

Requested field: pIC50. Item: CCC(CC)NC(=O)c1ccccc1Nc1ncnc(Nc2ccc(CN)cc2)n1
5.72

* * *

Target: Focal adhesion kinase 1 (Homo sapiens)
Assay: Inhibition of pre-activated recombinant full length FAK (unknown origin) using ULight labeled poly(Glu/Tyr) as substrate after 1.6 hrs by TR-FRET assay
pIC50: −log10 of the molar value.
Think of 5 as a floor: if pIC50 stands on it or above, it is 1; beneath it, 0.

CCC(CC)NC(=O)c1ccccc1Nc1ncnc(Nc2cc(OC)c(OC)c(OC)c2)n1	1

Decide: is the reported value of pIC50 for CNC(=O)c1ccccc1Nc1ncnc(Nc2cc(CCC(N)=O)c(OC)c(OC)c2)n1 equal to or greater than 5?
1

Decide: is the reported value of pIC50 for COc1cc(Nc2ncnc(Nc3ccccc3C(=O)NC3CCCC3)n2)cc(OC)c1OC equal to or greater than 5?
1

Decide: is the reported value of pIC50 for COc1cc(Nc2ncnc(Nc3ccccc3NS(C)(=O)=O)n2)cc(OC)c1OC equal to or greater than 5?
1

Decide: is the reported value of pIC50 for COC(=O)Nc1ccccc1Nc1nc(C)nc(Nc2cc(OC)c(OC)c(OC)c2)n1 equal to or greater than 5?
0

* * *

Each entry below carries its reported IC50.
Target: Focal adhesion kinase 1 (Homo sapiens)
Assay: Inhibition of pre-activated recombinant full length FAK (unknown origin) using ULight labeled poly(Glu/Tyr) as substrate after 1.6 hrs by TR-FRET assay
Numbers only; they are read as nM.

CCNC(=O)c1ccccc1Nc1ncnc(Nc2ccc(CN)cc2)n1	440

Requested field: IC50. Item: CNC(=O)c1ccccc1Nc1ncnc(Nc2ccc(OC)cc2OC)n1
1500

Requested field: IC50. Item: COc1cc(Nc2ncnc(Nc3ccccc3C(=O)NCCN(C)C)n2)cc(OC)c1OC
10200
